TARGET OR SYSTEM: HIV-integrase (Human immunodeficiency virus type 1 group M subtype B, UniProt P12497)
Construct: Recombinant integrase (0.26 ng) was incubated with the beads
TEST DETAILS: HIV-Integrase Inhibition Activity (SPA bead integration assay with P33 labeled target DNA)
Assay type: biochemical
CONDITIONS USED: recombinant integrase, class symbols; read-out: in vitro activity
QUANTITY: IC50

{"columns": ["COMPOUND", "TARGET OR SYSTEM", "ASSAY VALUE"],
 "data": [
  ["CC(=O)N1[C@@H]2C[C@@H]2C[C@H]1C(=O)NC12CCC(CC1)Cn1c2nc(C(=O)NCc2ccc(F)cc2)c(O)c1=O [Example 270]", "HIV-integrase (Human immunodeficiency virus type 1 group M subtype B, UniProt P12497)", "< 0.01 µM"]
]}

**Q:** Request body: readout IC50, system HIV-integrase (Human immunodeficiency virus type 1 group M subtype B, UniProt P12497), query COC(=O)C(=O)NC12CCC(CCn3c1nc(C(=O)NCc1ccc(F)cc1)c(O)c3=O)C2 (stereo not shown) [Example 210] . Return the value.
**A:** < 0.01 µM

**Q:** Request body: readout IC50, system HIV-integrase (Human immunodeficiency virus type 1 group M subtype B, UniProt P12497), query CN(C)C(=O)C(=O)NC12CCC(CC1)Cn1c2nc(C(=O)NCc2cccc(F)c2)c(O)c1=O [Example 371] . Return the value.
**A:** < 0.01 µM

**Q:** Request body: readout IC50, system HIV-integrase (Human immunodeficiency virus type 1 group M subtype B, UniProt P12497), query CN(C)C(=O)C(=O)N(C)C12CCC(CC1)Cn1c2nc(C(=O)NCc2ccc(F)c(Cl)c2)c(O)c1=O [Example 158] . Return the value.
**A:** < 0.01 µM

**Q:** Request body: readout IC50, system HIV-integrase (Human immunodeficiency virus type 1 group M subtype B, UniProt P12497), query CN(C)C(=O)C(=O)NC12CCC(CC1)Cn1c2nc(C(=O)N[C@H]2C[C@@H]2c2ccccc2)c(O)c1=O [Example 357] . Return the value.
**A:** < 0.01 µM

**Q:** Request body: readout IC50, system HIV-integrase (Human immunodeficiency virus type 1 group M subtype B, UniProt P12497), query Cc1cc(CNC(=O)c2nc3n(c(=O)c2O)CCC2CCC3(NC(=O)C(=O)N3CC[C@@H](F)C3)C2)ccc1F (stereo partly shown) [Example 216] . Return the value.
**A:** < 0.01 µM

**Q:** Request body: readout IC50, system HIV-integrase (Human immunodeficiency virus type 1 group M subtype B, UniProt P12497), query CNC(=O)C(=O)NC12CCC(Cn3c1nc(C(=O)NCc1ccc(F)cc1)c(O)c3=O)C2 (stereo not shown) [Example 193] . Return the value.
**A:** < 0.01 µM
